Tested on: E. coli TOP10
Experiment: Suicide expression system (SES) growth inhibition
Format: cell-based
Conditions: Table 5; mixed-motif library, re-tested in the Bioscreen C
EXPERIMENTAL READOUT: Growth inhibition (%)
Report as a plain number; the unit % is understood.

Some substances with recorded Growth inhibition (%):
| SUBSTANCE | RESULT UNIT | Growth inhibition (%) |
| --- | --- | --- |
| 282 (RRRPPRLPRPLPLRPPPRLPHPIPFRP; Synthetic antimicrobial peptide) [compound 282] | % | 95 |
| 287 (RRRPPRLPRPLPVRPPPRLPRPIPIRP; Synthetic antimicrobial peptide) [compound 287] | % | 95 |
| 280 (RRRPPRLPRPLPLRPPPRFPRPFPVRP; Synthetic antimicrobial peptide) [compound 280] | % | 97 |
| 305 (RRRPPRLPRPVPVRPPPRFPRPVPVRP; Synthetic antimicrobial peptide) [compound 305] | % | 90 |
| 257 (RRRPPRLPRPIPVRPPPRFPRPIPFRP; Synthetic antimicrobial peptide) [compound 257] | % | 92 |
| 311 (RRRPPRVPRPFPVRPPPRFPRPVPFRP; Synthetic antimicrobial peptide) [compound 311] | % | 96 |

Query :: Provide one value: measured Growth inhibition (%) of 268 (RRRPPRLPRPLPFRPPPRVPRPVPLRP; Synthetic antimicrobial peptide) [compound 268]
Result :: 93

Query :: Provide one value: measured Growth inhibition (%) of 293 (RRRPPRLPRPVPFRPPPRFPRPFPIRP; Synthetic antimicrobial peptide) [compound 293]
Result :: 93

Query :: Provide one value: measured Growth inhibition (%) of 317 (RRRTRHVFARPVPVRPPPRVPRPFPVRP; Synthetic antimicrobial peptide) [compound 317]
Result :: 95

Query :: Provide one value: measured Growth inhibition (%) of 312 (RRRPPRVPRPIPIRPPPRVPRPVPFRP; Synthetic antimicrobial peptide) [compound 312]
Result :: 93

* * *

Tested on: E. coli TOP10
Experiment: Suicide expression system (SES) growth inhibition
Type: cell-based
Settings: Table 5; mixed-motif library, re-tested in the Bioscreen C
This section presents substances with their documented Growth inhibition (%) values.
Report as a plain number; the unit % is understood.

Query :: Provide one value: measured Growth inhibition (%) of 209 (RRRPPRIPRPFPIRPPPRFPRPIPFRP; Synthetic antimicrobial peptide) [compound 209]
Result :: 78

Query :: Provide one value: measured Growth inhibition (%) of 262 (RRRPPRLPRPIPVRPPPRLPRPVPLRP; Synthetic antimicrobial peptide) [compound 262]
Result :: 93

Query :: Provide one value: measured Growth inhibition (%) of 251 (RRRPPRLPRPIPFRPPPRIPRPLPFRP; Synthetic antimicrobial peptide) [compound 251]
Result :: 96

Query :: Provide one value: measured Growth inhibition (%) of 265 (RRRPPRLPRPLPFRPPPRLPRPFPVRP; Synthetic antimicrobial peptide) [compound 265]
Result :: 94

* * *

Tested on: E. coli TOP10
Test: Suicide expression system (SES) growth inhibition
Format: cell-based
Details: Table 5; mixed-motif library, re-tested in the Bioscreen C
EXPERIMENTAL READOUT: Growth inhibition (%)
Report as a plain number; the unit % is understood.

| SUBSTANCE | ASSAY TARGET | Growth inhibition (%) |
| --- | --- | --- |
| 229 (RRRPPRLPRPFPLRPPPRFPRPFPLRP; Synthetic antimicrobial peptide) [compound 229] | E. coli TOP10 | 95 |
| 316 (RRRTRHVFARPFPFRPPPRIPRPFPLRP; Synthetic antimicrobial peptide) [compound 316] | E. coli TOP10 | 97 |
| 233 (RRRPPRLPRPFPLRPPPRLPRPLPVRP; Synthetic antimicrobial peptide) [compound 233] | E. coli TOP10 | 91 |
| 283 (RRRPPRLPRPLPVRPPPRFPRPVPFRP; Synthetic antimicrobial peptide) [compound 283] | E. coli TOP10 | 95 |
| 291 (RRRPPRLPRPLPVRPPPRVPRPVPFRP; Synthetic antimicrobial peptide) [compound 291] | E. coli TOP10 | 90 |
| 238 (RRRPPRLPRPFPVRPPPRFPRPFPIRP; Synthetic antimicrobial peptide) [compound 238] | E. coli TOP10 | 95 |
| 275 (RRRPPRLPRPLPIRPPPRLPRPFPVRP; Synthetic antimicrobial peptide) [compound 275] | E. coli TOP10 | 92 |
| 259 (RRRPPRLPRPIPVRPPPRFPRPIPVRP; Synthetic antimicrobial peptide) [compound 259] | E. coli TOP10 | 98 |
| 234 (RRRPPRLPRPFPLRPPPRVPRPLPIRP; Synthetic antimicrobial peptide) [compound 234] | E. coli TOP10 | 93 |
| 296 (RRRPPRLPRPVPFRPPPRVPRPIPFRP; Synthetic antimicrobial peptide) [compound 296] | E. coli TOP10 | 88 |

Query :: Provide Growth inhibition (%), system E. coli TOP10, entry 297 (RRRPPRLPRPVPFRPPPRVPRPIPVRP; Synthetic antimicrobial peptide) [compound 297]
Result :: 90

Query :: Provide Growth inhibition (%), system E. coli TOP10, entry 290 (RRRPPRLPRPLPVRPPPRVPRPLPLRP; Synthetic antimicrobial peptide) [compound 290]
Result :: 94

Query :: Provide Growth inhibition (%), system E. coli TOP10, entry 232 (RRRPPRLPRPFPLRPPPRLPRPIPVRP; Synthetic antimicrobial peptide) [compound 232]
Result :: 92

Query :: Provide Growth inhibition (%), system E. coli TOP10, entry 211 (RRRPPRLPRPFPFRPPPRFPRPIPFRP; Synthetic antimicrobial peptide) [compound 211]
Result :: 96

Query :: Provide Growth inhibition (%), system E. coli TOP10, entry 240 (RRRPPRLPRPFPVRPPPRFPRPVPFRP; Synthetic antimicrobial peptide) [compound 240]
Result :: 91

Query :: Provide Growth inhibition (%), system E. coli TOP10, entry 318 (RRRTRHVVPRPLPVRPPPRVPRPFPLRP; Synthetic antimicrobial peptide) [compound 318]
Result :: 93
